These measurements were taken from patent US20260070987A1.

# target or system: equine FcRn (large alpha subunit p51) in complex with equine beta-2-microglobulin (equine) (UniProt F6XZ61)
# method summary: SPR (Biacore), pH 6
Reported log10 Kd by item:
readout: log10 Kd (log10 of the value in nM)

{"binder": "equine IgG7 D312L mutant (antibody, part only; not given: variable domains, not shown: another chain or arm of the molecule) constant: ASTTAPKVFPLASHSAATSGSTVALGCLVSSYFPEPVTVSWNSGALTSGVHTFPSVLQSSGLYSLSSMVTVPASSLKSQTYICNVAHPASSTKVDKKIVIKECGGCPTCPECLSVGPSVFIFPPKPKDVLMISRTPTVTCVVVDVGHDFPDVQFNWYVDGVETHTATTEPKQEQNNSTYRVVSILAIQHKLWLSGKEFKCKVNNQALPAPVQKTISKPTGQPREPQVYVLAPHRDELSKNKVSVTCLVKDFYPTDIDIEWKSNGQPEPETKYSTTPAQLDSDGSYFLYSKLTVETNRWQQGTTFTCAVMHEALHNHYTEKSVSKSPGK", "log10 Kd": 0.76}
{"binder": "equine IgG7 K311E mutant (antibody, part only; not given: variable domains, not shown: another chain or arm of the molecule) constant: ASTTAPKVFPLASHSAATSGSTVALGCLVSSYFPEPVTVSWNSGALTSGVHTFPSVLQSSGLYSLSSMVTVPASSLKSQTYICNVAHPASSTKVDKKIVIKECGGCPTCPECLSVGPSVFIFPPKPKDVLMISRTPTVTCVVVDVGHDFPDVQFNWYVDGVETHTATTEPKQEQNNSTYRVVSILAIQHEDWLSGKEFKCKVNNQALPAPVQKTISKPTGQPREPQVYVLAPHRDELSKNKVSVTCLVKDFYPTDIDIEWKSNGQPEPETKYSTTPAQLDSDGSYFLYSKLTVETNRWQQGTTFTCAVMHEALHNHYTEKSVSKSPGK", "log10 Kd": 1.78}
{"binder": "equine IgG7 N434F mutant (antibody, part only; not given: Variable domains, not shown: another chain or arm of the molecule; small tags and cut ends) constant: ASTTAPKVFPLASHSAATSGSTVALGCLVSSYFPEPVTVSWNSGALTSGVHTFPSVLQSSGLYSLSSMVTVPASSLKSQTYICNVAHPASSTKVDKKIVIKECGGCPTCPECLSVGPSVFIFPPKPKDVLMISRTPTVTCVVVDVGHDFPDVQFNWYVDGVETHTATTEPKQEQNNSTYRVVSILAIQHKDWLSGKEFKCKVNNQALPAPVQKTISKPTGQPREPQVYVLAPHRDELSKNKVSVTCLVKDFYPTDIDIEWKSNGQPEPETKYSTTPAQLDSDGSYFLYSKLTVETNRWQQGTTFTCAVMHEALHFHYTEKSVSKSPGK", "log10 Kd": 0.87}
{"binder": "equine IgG7 A426C mutant (antibody, part only; not given: variable domains, not shown: another chain or arm of the molecule) constant: ASTTAPKVFPLASHSAATSGSTVALGCLVSSYFPEPVTVSWNSGALTSGVHTFPSVLQSSGLYSLSSMVTVPASSLKSQTYICNVAHPASSTKVDKKIVIKECGGCPTCPECLSVGPSVFIFPPKPKDVLMISRTPTVTCVVVDVGHDFPDVQFNWYVDGVETHTATTEPKQEQNNSTYRVVSILAIQHKDWLSGKEFKCKVNNQALPAPVQKTISKPTGQPREPQVYVLAPHRDELSKNKVSVTCLVKDFYPTDIDIEWKSNGQPEPETKYSTTPAQLDSDGSYFLYSKLTVETNRWQQGTTFTCCVMHEALHNHYTEKSVSKSPGK", "log10 Kd": 1.16}
{"binder": "equine IgG7 Y436G mutant (antibody, part only; not given: variable domains, not shown: another chain or arm of the molecule) constant: ASTTAPKVFPLASHSAATSGSTVALGCLVSSYFPEPVTVSWNSGALTSGVHTFPSVLQSSGLYSLSSMVTVPASSLKSQTYICNVAHPASSTKVDKKIVIKECGGCPTCPECLSVGPSVFIFPPKPKDVLMISRTPTVTCVVVDVGHDFPDVQFNWYVDGVETHTATTEPKQEQNNSTYRVVSILAIQHKDWLSGKEFKCKVNNQALPAPVQKTISKPTGQPREPQVYVLAPHRDELSKNKVSVTCLVKDFYPTDIDIEWKSNGQPEPETKYSTTPAQLDSDGSYFLYSKLTVETNRWQQGTTFTCAVMHEALHNHGTEKSVSKSPGK", "log10 Kd": 1.71}
{"binder": "equine IgG7 M428G mutant (antibody, part only; not given: variable domains, not shown: another chain or arm of the molecule) constant: ASTTAPKVFPLASHSAATSGSTVALGCLVSSYFPEPVTVSWNSGALTSGVHTFPSVLQSSGLYSLSSMVTVPASSLKSQTYICNVAHPASSTKVDKKIVIKECGGCPTCPECLSVGPSVFIFPPKPKDVLMISRTPTVTCVVVDVGHDFPDVQFNWYVDGVETHTATTEPKQEQNNSTYRVVSILAIQHKDWLSGKEFKCKVNNQALPAPVQKTISKPTGQPREPQVYVLAPHRDELSKNKVSVTCLVKDFYPTDIDIEWKSNGQPEPETKYSTTPAQLDSDGSYFLYSKLTVETNRWQQGTTFTCAVGHEALHNHYTEKSVSKSPGK", "log10 Kd": 1.99}
{"binder": "equine IgG7 T286D mutant (antibody, part only; not given: Variable domains, not shown: another chain or arm of the molecule) constant: ASTTAPKVFPLASHSAATSGSTVALGCLVSSYFPEPVTVSWNSGALTSGVHTFPSVLQSSGLYSLSSMVTVPASSLKSQTYICNVAHPASSTKVDKKIVIKECGGCPTCPECLSVGPSVFIFPPKPKDVLMISRTPTVTCVVVDVGHDFPDVQFNWYVDGVETHDATTEPKQEQNNSTYRVVSILAIQHKDWLSGKEFKCKVNNQALPAPVQKTISKPTGQPREPQVYVLAPHRDELSKNKVSVTCLVKDFYPTDIDIEWKSNGQPEPETKYSTTPAQLDSDGSYFLYSKLTVETNRWQQGTTFTCAVMHEALHNHYTEKSVSKSPGK", "log10 Kd": 1.68}
{"binder": "equine IgG7 T286M mutant (antibody, part only; not given: variable domains, not shown: another chain or arm of the molecule) constant: ASTTAPKVFPLASHSAATSGSTVALGCLVSSYFPEPVTVSWNSGALTSGVHTFPSVLQSSGLYSLSSMVTVPASSLKSQTYICNVAHPASSTKVDKKIVIKECGGCPTCPECLSVGPSVFIFPPKPKDVLMISRTPTVTCVVVDVGHDFPDVQFNWYVDGVETHMATTEPKQEQNNSTYRVVSILAIQHKDWLSGKEFKCKVNNQALPAPVQKTISKPTGQPREPQVYVLAPHRDELSKNKVSVTCLVKDFYPTDIDIEWKSNGQPEPETKYSTTPAQLDSDGSYFLYSKLTVETNRWQQGTTFTCAVMHEALHNHYTEKSVSKSPGK", "log10 Kd": 1.29}
